All values here come from the METLIN SMRT retention time set (Domingo-Almenara et al. 2019).

test: gradient 5% acetonitrile 3 min, to 50% in 2 min, to 85% in 15 min, held 3 min, 100 µL/min; conditions: column: Zorbax Extend-C18 2.1 x 50 mm; eluents: water / acetonitrile, 0.1% formic acid
MEASURED METRIC: RP-LC retention time (s)

P = O=C(NCCC1=CCCCC1)C1CCCCN1S(=O)(=O)c1ccc(Cl)cc1 (centres undefined)
Q = Cc1[nH]c(=O)[nH]c(=O)c1CC(=O)NCCc1cccs1
Lookup: Lab notebook, comparison: P versus Q , higher RP-LC retention time goes to which? Response format: the label of the selected entry.
Found: P

* * *

test: gradient 5% acetonitrile 3 min, to 50% in 2 min, to 85% in 15 min, held 3 min, 100 µL/min; conditions: column: Zorbax Extend-C18 2.1 x 50 mm; eluents: water / acetonitrile, 0.1% formic acid
MEASURED METRIC: RP-LC retention time (s)

In the examples that follow, each entry is paired with its recorded RP-LC retention time.
MOLECULE: COCCOC(=O)c1c(C)oc2ccc(OC(=O)C3CC3)cc12
UNIT ABBREV: s
MEASURED VALUE: 941
//
MOLECULE: Cc1ccc(C)c(S(=O)(=O)N2CCC3(CC2)NCCN=C3NCc2cc(F)cc(F)c2)c1
UNIT ABBREV: s
MEASURED VALUE: 774
//
MOLECULE: CCn1ccc2c(cc(C(=O)Nc3ccc(C)c(C)c3)n2C)c1=O
UNIT ABBREV: s
MEASURED VALUE: 824

I = CC1Oc2ccccc2OC1C(=O)Nc1sc2c(c1C#N)CCCC2 (centres undefined)
II = O=S(=O)(c1ccc2c(c1)CCC2)N1CCCn2nc(-c3cccnc3)cc2C1
Lookup: // which entry reports the smaller RP-LC retention time, I or II ? Response format: the label of the selected entry.
Found: II
(II: 714 s, I: 1120 s)

I = CCCCC(=O)Nc1ccc(-c2nc(-c3cc(C)ccc3C)co2)cc1
II = CCCN1CCN(C(=O)Cn2c3ccccc3c3cnn(C)c(=O)c32)CC1
Lookup: Lab notebook, comparison: I versus II , higher RP-LC retention time goes to which? Response format: the label of the selected entry.
Found: I
(I: 1280 s, II: 590 s)

A = O=C(C1CC(=O)N(c2ccccc2)C1)N1CCN(c2ccc(-c3noc(C4CCC4)n3)cc2)CC1 (centres undefined)
B = COc1cc2c(cc1CNC(=O)Cn1c(C)nc3cc4c(cc31)OCCO4)OCCCO2
Lookup: // which entry reports the smaller RP-LC retention time, A or B ? Response format: the label of the selected entry.
Found: B
(B: 643 s, A: 970 s)
